These data points were gathered from patent US20220177587A1.

biological target: human PD-L1 (huPD-L1), on stably transduced CHO cells (human) (UniProt Q9NZQ7); experiment: flow cytometry on CHO/huPD-L1 cells; MFI relative to WT CD80 (CD80 WT IgV-Fc = 1.0)
Sequence (Q9NZQ7 19-290): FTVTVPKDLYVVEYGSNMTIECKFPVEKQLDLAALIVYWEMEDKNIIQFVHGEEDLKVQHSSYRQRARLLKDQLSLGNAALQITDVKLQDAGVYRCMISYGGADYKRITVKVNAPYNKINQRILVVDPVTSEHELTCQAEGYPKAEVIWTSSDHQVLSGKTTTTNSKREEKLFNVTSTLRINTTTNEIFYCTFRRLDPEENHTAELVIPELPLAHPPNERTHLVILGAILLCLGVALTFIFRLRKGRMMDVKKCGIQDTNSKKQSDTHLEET
quantity: Fold change to WT CD80 (fold)

I. variant CD80 IgV-Fc E35D/M47L/A71G/L85M (Fc fusion) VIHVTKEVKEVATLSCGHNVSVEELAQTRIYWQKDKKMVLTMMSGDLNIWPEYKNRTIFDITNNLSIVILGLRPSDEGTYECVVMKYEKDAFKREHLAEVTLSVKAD
II. variant CD80 IgV-Fc Q27L/E35D/M47V/I61V/L85M (Fc fusion) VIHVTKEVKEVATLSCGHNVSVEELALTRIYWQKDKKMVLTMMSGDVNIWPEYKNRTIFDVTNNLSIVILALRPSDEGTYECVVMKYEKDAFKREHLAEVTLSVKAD
Query: Dear colleague, could you let me know whether I or II has the lower recorded Fold change to WT CD80? Thanks. Lab log: write the label of the selected item as the result.
Response: II
